Origin of measurements: the supplement of paper PMC10567573

B1: ZNF511 (parent)
chain: FDALDDYEHHYHTLHGNVCSFCKR

Variants of: B1
Assay: protein stability index of a GFP-peptide fusion (GPS, HEK-293T) (PSI 1-6); higher = more stable;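 further: lentivirally expressed fusions sorted by FACS into six bins by GFP to DsRed ratio, PSI derived from sequencing read proportions per bin multiplied by bin number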
Conditions: c terminus: a fixed tail appended
Measured quantity: protein stability index
// return a plain number; no unit text

Given L14Q , state its recorded protein stability index. 4.28

Given V18K , state its recorded protein stability index. 4.05

Given G16V , state its recorded protein stability index. 2.96

Given Y11L , state its recorded protein stability index. 4.05

Given S20A , state its recorded protein stability index. 3.81
